Target: hPPARα (Homo sapiens)
Construct: expressed in transfected cells; host or cells: HEK-293
Sequence (Q07869 239-466 limits assumed): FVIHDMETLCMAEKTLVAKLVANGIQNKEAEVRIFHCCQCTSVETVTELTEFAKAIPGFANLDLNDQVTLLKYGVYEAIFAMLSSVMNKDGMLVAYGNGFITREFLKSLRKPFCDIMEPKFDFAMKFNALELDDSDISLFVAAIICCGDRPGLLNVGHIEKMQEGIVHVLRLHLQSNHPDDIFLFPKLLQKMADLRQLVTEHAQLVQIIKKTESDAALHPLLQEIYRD
Assay: Determination of hPPARα activity (GAL4 fusion luciferase reporter in HEK-293 cells)
Format: cell-based
Conditions: compound at 50 μM
REPORTED METRIC: PPARα

[
  {
    "COMPOUND": "CCc1nc(-c2ccccc2)cc(=O)n1CCOc1ccc(NC(C)C(=O)O)cc1 (stereo not drawn)",
    "TESTED ON": "hPPARα (Homo sapiens)",
    "PPARα": 6.2
  },
  {
    "COMPOUND": "CCCCCCCN(C(=O)Cn1c(CC)nc(-c2ccccc2)cc1=O)c1ccc(S[C@@H](CC(C)C)C(=O)O)cc1",
    "TESTED ON": "hPPARα (Homo sapiens)",
    "PPARα": 6.7
  },
  {
    "COMPOUND": "CCCCCCCN(C(=O)Cn1c(CC)nc(-c2ccccc2)cc1=O)c1ccc(OC(C)(CC)C(=O)O)cc1 (stereo not drawn)",
    "TESTED ON": "hPPARα (Homo sapiens)",
    "PPARα": 7.5
  },
  {
    "COMPOUND": "CCc1nc(-c2ccccc2)cc(=O)n1CCNc1ccc(SC(CC)C(=O)O)cc1 (stereo not drawn)",
    "TESTED ON": "hPPARα (Homo sapiens)",
    "PPARα": 6.5
  },
  {
    "COMPOUND": "CCc1nc(-c2ccccc2)cc(=O)n1CC(=O)Nc1ccc(SC(C(=O)O)C(C)C)cc1 (stereo not drawn)",
    "TESTED ON": "hPPARα (Homo sapiens)",
    "PPARα": 7.2
  },
  {
    "COMPOUND": "Cc1cccc(Nc2cc(Cl)nc(SCC(=O)O)n2)c1C [Wy 14643, reference compound]",
    "TESTED ON": "hPPARα (Homo sapiens)",
    "PPARα": 7
  }
]

----------
A collection of molecules and their measured melting point

[
  {
    "MOLECULE": "CCCCCCCN(C(=O)Cn1c(CC)nc(-c2ccccc2)cc1=O)c1ccc(S[C@@H](CC(C)C)C(=O)O)cc1 [Example 43]",
    "melting point": "58 to 60 °C"
  },
  {
    "MOLECULE": "CCc1nc(-c2ccccc2)cc(=O)n1CCNc1ccc(SC(C(=O)O)C(C)C)cc1 (stereo not shown) [Example 48]",
    "melting point": "65 to 70 °C"
  },
  {
    "MOLECULE": "CCCC(Oc1ccc(OCCn2c(CC)nc(-c3ccccc3)cc2=O)cc1)C(=O)O (stereo not shown) [Example 32]",
    "melting point": "190 to 192 °C"
  }
]

Input line: So what's the measured melting point for this one? CCCCCCCN(c1ccc(OCCn2c(CC)nc(-c3ccccc3)cc2=O)cc1)C(C)C(=O)OCC (stereo not shown) [Example 25]
Output line: 88 to 89 °C

Input line: // returns reported melting point for input CCOC(=O)C(C)(C)Oc1ccc(C(=O)NCCn2c(CC)nc(-c3ccccc3)cc2=O)cc1 [Example 2]
Output line: 148 to 150 °C

----------
Target: hPPARγ1 (Homo sapiens)
Construct: expressed in transfected cells; host or cells: HEK-293
Sequence (P37231 238-503 limits assumed): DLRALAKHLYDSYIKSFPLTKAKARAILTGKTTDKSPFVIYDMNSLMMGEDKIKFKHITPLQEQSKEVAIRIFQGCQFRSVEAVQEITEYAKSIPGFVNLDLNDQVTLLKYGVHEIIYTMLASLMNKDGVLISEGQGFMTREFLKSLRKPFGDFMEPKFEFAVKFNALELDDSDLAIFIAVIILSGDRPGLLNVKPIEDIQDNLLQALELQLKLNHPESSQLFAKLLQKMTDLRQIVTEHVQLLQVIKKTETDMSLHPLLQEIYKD
Test: Determination of hPPARγ activity (GAL4 fusion luciferase reporter in HEK-293 cells)
Assay type: cell-based
Details: compound at 1 μM
REPORTED METRIC: PPARγ

Example compounds with recorded PPARγ:
[
  {
    "COMPOUND": "CCCCCCCN(C(=O)Cn1c(CC)nc(-c2ccccc2)cc1=O)c1ccc(OC(C)(CC)C(=O)O)cc1 (centres unmarked)",
    "NUMERIC RESULT": 1.2
  },
  {
    "COMPOUND": "CCc1nc(-c2ccccc2)cc(=O)n1CCNc1ccc(SC(CC)C(=O)O)cc1 (centres unmarked)",
    "NUMERIC RESULT": 3.1
  },
  {
    "COMPOUND": "CCc1nc(-c2ccccc2)cc(=O)n1CCOc1ccc(NC(C)C(=O)O)cc1 (centres unmarked)",
    "NUMERIC RESULT": 2.2
  }
]

A. CCCCCCCN(C(=O)Cn1c(CC)nc(-c2ccccc2)cc1=O)c1ccc(S[C@@H](CC(C)C)C(=O)O)cc1
B. CCc1nc(-c2ccccc2)cc(=O)n1CC(=O)Nc1ccc(SC(C(=O)O)C(C)C)cc1 (centres unmarked)
Input line: Higher PPARγ between A and B ? Selection: enter the item's label.
Output line: A
